All values here come from patent US20090227575A1.

target: UniProt:Q96Q15; assay: hSMG-1 kinase assay (DELFIA); settings: read-out: hSMG1 IC50
Sequence (Q96Q15 whole entry): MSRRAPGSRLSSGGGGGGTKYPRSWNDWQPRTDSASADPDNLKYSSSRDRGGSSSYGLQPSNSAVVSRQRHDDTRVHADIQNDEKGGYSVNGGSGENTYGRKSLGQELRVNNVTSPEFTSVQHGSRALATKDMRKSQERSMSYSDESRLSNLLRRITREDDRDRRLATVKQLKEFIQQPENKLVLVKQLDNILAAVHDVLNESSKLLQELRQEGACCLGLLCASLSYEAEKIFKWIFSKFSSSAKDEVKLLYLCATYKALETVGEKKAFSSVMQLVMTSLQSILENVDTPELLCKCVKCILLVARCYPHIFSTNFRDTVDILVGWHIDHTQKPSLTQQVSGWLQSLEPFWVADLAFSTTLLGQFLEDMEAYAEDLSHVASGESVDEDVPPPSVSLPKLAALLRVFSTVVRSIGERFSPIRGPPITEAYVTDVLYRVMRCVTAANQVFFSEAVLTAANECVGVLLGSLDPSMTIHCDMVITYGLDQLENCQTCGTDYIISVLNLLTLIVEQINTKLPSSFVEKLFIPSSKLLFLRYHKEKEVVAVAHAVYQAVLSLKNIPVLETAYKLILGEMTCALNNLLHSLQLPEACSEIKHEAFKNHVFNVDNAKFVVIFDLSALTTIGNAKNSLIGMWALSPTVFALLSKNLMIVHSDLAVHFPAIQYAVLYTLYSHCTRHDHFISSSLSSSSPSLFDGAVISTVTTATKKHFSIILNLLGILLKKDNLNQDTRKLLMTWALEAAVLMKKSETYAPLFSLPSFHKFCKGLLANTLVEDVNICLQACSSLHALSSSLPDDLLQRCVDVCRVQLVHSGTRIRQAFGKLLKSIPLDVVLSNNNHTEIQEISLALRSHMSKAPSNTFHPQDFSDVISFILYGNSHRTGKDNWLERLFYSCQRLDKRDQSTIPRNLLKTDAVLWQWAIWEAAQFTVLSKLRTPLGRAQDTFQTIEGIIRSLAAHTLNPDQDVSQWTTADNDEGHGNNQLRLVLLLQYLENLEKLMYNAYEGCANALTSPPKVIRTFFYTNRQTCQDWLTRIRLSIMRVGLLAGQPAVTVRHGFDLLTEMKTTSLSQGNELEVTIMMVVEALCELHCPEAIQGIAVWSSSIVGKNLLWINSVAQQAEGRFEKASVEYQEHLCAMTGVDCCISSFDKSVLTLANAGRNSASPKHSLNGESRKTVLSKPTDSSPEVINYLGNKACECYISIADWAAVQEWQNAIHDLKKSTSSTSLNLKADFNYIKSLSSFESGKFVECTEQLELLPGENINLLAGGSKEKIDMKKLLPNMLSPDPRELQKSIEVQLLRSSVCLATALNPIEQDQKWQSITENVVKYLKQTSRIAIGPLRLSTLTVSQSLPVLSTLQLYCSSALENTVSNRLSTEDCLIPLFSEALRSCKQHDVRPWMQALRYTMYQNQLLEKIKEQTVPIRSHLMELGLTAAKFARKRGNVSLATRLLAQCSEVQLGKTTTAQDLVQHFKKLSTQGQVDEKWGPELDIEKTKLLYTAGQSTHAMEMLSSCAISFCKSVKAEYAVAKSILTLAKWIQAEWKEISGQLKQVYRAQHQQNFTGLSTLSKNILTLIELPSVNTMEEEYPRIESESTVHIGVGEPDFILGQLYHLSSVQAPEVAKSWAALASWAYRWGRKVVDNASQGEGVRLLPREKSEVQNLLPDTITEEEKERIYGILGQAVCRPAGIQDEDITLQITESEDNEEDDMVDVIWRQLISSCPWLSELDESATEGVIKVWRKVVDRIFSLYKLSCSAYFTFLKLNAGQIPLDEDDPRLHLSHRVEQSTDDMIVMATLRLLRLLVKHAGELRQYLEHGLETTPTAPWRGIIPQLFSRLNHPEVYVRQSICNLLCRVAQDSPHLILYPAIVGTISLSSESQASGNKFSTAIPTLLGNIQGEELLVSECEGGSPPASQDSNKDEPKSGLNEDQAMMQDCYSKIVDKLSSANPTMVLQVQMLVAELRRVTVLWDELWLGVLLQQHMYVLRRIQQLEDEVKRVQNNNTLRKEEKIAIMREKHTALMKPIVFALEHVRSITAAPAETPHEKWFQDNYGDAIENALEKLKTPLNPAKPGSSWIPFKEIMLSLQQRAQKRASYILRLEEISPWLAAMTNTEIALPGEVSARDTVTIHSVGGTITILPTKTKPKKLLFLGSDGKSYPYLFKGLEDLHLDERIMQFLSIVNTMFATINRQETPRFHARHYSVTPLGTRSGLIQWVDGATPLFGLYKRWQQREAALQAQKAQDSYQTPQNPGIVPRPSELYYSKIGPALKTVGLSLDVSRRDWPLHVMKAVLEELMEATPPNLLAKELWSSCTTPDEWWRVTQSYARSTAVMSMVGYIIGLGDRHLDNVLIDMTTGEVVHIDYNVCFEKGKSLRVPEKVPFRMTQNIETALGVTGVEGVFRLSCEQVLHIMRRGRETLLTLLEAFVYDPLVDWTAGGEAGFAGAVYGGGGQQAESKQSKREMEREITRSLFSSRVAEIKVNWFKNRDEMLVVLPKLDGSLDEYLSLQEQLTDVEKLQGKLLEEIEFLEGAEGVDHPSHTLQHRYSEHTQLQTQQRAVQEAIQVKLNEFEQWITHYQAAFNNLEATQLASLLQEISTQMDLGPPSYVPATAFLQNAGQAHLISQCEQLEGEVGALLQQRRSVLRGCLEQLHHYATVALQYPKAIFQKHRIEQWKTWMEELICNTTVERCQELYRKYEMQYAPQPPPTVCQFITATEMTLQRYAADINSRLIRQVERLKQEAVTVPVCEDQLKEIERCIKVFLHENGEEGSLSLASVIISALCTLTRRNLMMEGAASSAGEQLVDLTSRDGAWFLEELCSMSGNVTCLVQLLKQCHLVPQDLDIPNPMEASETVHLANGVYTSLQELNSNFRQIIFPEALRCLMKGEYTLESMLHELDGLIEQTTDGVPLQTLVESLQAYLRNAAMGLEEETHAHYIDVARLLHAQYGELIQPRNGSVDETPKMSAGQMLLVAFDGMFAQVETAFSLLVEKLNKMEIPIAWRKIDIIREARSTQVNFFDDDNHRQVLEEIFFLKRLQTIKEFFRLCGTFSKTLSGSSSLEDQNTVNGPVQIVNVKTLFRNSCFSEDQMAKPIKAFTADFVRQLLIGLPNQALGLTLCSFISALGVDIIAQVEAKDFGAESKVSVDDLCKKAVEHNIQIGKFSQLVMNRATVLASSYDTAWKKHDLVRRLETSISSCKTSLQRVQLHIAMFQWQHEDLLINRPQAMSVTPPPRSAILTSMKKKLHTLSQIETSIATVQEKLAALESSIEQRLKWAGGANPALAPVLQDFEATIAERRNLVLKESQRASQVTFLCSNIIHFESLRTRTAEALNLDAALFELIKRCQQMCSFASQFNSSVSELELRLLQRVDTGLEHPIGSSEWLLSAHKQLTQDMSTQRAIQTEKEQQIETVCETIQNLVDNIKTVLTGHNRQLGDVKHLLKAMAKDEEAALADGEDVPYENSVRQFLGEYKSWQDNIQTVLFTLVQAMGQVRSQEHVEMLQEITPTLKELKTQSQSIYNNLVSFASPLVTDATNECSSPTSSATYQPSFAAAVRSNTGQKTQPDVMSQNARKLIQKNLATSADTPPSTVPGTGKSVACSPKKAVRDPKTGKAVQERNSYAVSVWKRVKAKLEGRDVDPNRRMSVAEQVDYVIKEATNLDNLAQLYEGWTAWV
property_measured: IC50 (µM)

(I) CCNC(=O)Nc1ccc(-c2nc(N3CCOCC3)c3ccc4c(ccn4CCN(C)C)c3n2)cc1
(II) CC(=O)Nc1ccc(-c2nc(N3CCOCC3)c3ccc4c(ccn4S(C)(=O)=O)c3n2)cc1
(III) CN(C)CCn1ccc2c3nc(-c4ccc(NC(=O)Nc5cccnc5)cc4)nc(N4CCOCC4)c3ccc21
List the 3 compounds shown above, ordered by increasing IC50. Please respond by ranking the labels in the order requested. III, I, II
(III: 0.29 µM, I: 2 µM, II: 5.25 µM)
